// values below are reported protein stability index
B1: SETD8 (parent)
chain: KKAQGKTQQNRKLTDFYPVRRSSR

# Variants of: B1
# assay info: protein stability index of a GFP-peptide fusion (GPS, HEK-293T) (PSI 1-6); higher = more stable;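 note: lentivirally expressed fusions sorted by FACS into six bins by GFP to DsRed ratio, PSI derived from sequencing read proportions per bin multiplied by bin number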
# conditions: c terminus: a fixed tail appended
API note: the answer field is a bare number with no unit suffix.

primary sequence	protein stability index
NKAQGKTQQNRKLTDFYPVRRSSR [K1N]	2.13
SKAQGKTQQNRKLTDFYPVRRSSR [K1S]	2.88
KKAQGKTQQNRKLTDFYPVRRLSR [S22L]	2.02
KKAQYKTQQNRKLTDFYPVRRSSR [G5Y]	2.92

QUERY: If you can, please state the reported protein stability index value of KKAQGKTQQNRKLTDFYPNRRSSR [V19N] .
RESULT: 3.29

QUERY: Record request: protein stability index value, item KKAQGATQQNRKLTDFYPVRRSSR [K6A]
RESULT: 3.18
